assayed-target: T1, FV-short-RQ∗ (FV-short-RQ precleaved at Arg709 with thrombin) (human, UniProt P12259 29-737; P12259 738-2224, Δ756–1458 | Arg^1545 replaced with Gln)
T1 construct: coagulation factor V heavy chain (HC), released by cleavage at Arg709; coagulation factor V, rest of the shortened B-domain with AR2 joined to the light chain; also called FV-short cleaved at Arg709; source: FV-short-RQ (BHK cells, purified), 300 nM incubated with 2 nM thrombin 30 min at 37 °C, quenched with hirudin
T1 sequence (looked up) 1: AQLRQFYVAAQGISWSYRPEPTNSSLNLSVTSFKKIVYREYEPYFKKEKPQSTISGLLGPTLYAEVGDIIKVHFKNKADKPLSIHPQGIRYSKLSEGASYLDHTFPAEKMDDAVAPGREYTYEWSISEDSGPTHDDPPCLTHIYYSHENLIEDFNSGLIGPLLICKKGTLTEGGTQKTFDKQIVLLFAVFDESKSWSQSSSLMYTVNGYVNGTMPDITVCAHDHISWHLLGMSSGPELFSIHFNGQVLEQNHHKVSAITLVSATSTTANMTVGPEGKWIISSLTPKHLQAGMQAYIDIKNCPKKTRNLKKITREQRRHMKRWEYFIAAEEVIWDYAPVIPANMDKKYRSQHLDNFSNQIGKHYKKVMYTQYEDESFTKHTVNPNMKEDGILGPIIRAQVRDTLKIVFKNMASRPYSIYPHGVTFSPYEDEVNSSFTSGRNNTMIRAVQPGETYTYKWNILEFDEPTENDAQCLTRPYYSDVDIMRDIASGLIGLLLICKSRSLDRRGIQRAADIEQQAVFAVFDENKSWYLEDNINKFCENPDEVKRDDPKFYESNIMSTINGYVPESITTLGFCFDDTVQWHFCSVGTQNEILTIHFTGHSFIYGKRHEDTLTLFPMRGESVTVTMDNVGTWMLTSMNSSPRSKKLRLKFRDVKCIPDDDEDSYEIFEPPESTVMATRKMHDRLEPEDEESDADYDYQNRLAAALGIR
T1 sequence (looked up) 2: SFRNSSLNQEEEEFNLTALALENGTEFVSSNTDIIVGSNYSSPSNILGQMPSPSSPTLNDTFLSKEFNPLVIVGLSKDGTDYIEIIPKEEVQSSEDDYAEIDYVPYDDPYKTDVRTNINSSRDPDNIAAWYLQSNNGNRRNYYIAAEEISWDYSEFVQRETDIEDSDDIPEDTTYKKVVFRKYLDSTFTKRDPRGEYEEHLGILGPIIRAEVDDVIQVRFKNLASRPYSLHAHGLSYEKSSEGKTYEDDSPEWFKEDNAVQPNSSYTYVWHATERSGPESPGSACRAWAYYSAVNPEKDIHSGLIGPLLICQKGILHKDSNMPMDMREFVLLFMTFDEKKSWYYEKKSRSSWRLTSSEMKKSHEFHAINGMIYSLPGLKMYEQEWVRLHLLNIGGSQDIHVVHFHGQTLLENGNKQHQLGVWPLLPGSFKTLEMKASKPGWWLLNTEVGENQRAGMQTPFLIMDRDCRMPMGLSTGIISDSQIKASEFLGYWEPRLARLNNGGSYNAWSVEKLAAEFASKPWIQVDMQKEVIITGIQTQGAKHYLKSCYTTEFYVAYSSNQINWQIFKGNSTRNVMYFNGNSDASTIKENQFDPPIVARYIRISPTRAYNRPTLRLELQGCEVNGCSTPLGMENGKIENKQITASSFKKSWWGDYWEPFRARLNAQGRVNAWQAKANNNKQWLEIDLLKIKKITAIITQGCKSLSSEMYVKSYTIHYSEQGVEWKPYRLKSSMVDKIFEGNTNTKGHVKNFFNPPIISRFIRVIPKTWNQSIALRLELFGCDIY
assay-comment: inhibition of prothrombinase (prothrombin activation assay); 0.1 nM cofactor species, 50 μM PCPS, 1.4 μM prothrombin, 3 μM DAPA, TFPIα-BR 0–7 μM, started with 2 nM FXa, assay buffer, 25 °C; Ki from the equation for competitive inhibition
measurement-conditions: both partners purified
measure: pKi
Answer as the number alone; pKi is minus log10 of concentration in mol/L.

Q. For the binder KKGFIQRISKGGLIKTKRKRKKQRVKIAYEEIFVKNM (domain or fragment, limits not printed (refs 17, 18); taken as the whole C-terminal tail after Kunitz 3 (mature 240-276); expressed in E. coli, unglycosylated) [TFPIα-BR, fragment containing the BR sequence of TFPIα] , give its measured pKi value.
A. 7.08
